Sourced from patent US20250282866A1

target.entity: T1, human TREM2 (human, UniProt Q9NZC2 19-174, limits assumed)
T1 construct: also called triggering receptor expressed on myeloid cells 2
T1 sequence: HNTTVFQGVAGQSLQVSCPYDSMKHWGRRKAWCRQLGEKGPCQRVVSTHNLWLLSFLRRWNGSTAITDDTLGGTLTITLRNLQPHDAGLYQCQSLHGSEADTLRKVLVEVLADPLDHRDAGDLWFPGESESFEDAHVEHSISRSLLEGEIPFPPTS
test.name: 2nd screen 100 nM
attribute.measured: Binding Signal (fold over 6E7 Parental antibody) (fold)

>  <binder>
V19 (antibody, V domains shown) VH: EVQLVQSGAEVKKPGESLKISCKGSGYSFTSSWIAWVRQMPGKGLEWMGIIYPGDSDTRYSPSFQGQVTISADKSISTAYLQWSSLKASDTAMYFCARQRTFYYDSSDYFDYWGQGTLVTVSS VL: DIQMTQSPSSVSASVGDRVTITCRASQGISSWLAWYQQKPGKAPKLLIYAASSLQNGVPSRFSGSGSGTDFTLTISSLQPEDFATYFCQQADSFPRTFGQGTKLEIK

>  <reported.result>
0.48

$$$$
>  <binder>
V54 (antibody, V domains shown) VH: EVQLVQSGAEVKKPGESLKISCKGSGYSFTSQWIAWVRQMPGKGLEWMGIIYPGDSDTRYSPSFQGQVTISADKSISTAYLQWSSLKASDTAMYFCARQRTFYYDSSDYFDYWGQGTLVTVSS VL: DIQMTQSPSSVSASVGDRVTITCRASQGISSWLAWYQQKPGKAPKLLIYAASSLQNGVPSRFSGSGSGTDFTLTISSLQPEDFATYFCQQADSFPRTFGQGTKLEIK

>  <reported.result>
0.54

$$$$
